- tested-system: ecNOS (Homo sapiens)
- assay-notes: NOS activity: L-[3H]citrulline formation from L-[3H]arginine, ecNOS
- Format: biochemical
quantity-name: IC50

Read the entry "Cc1cc(N)ncc1N" and write its reported IC50.
< 50 µM

====

- tested-system: ecNOS (Homo sapiens, UniProt P29474)
- assay-notes: NOS activity: L-[3H]citrulline formation from L-[3H]arginine, ecNOS
- Format: biochemical
- condition-description: Table 2; ecNOS; 1 μM L-Arg, pH 7.5, room temperature, 30 minutes; read-out: ecNOS (IC50)
Counter-ions that a name gives are not always drawn.
Quick list: IC50 per entry.

Read the entry Cc1cc(N)nc(CCCCC(=O)O)c1 [Example 74, hydrochloride] and write its reported IC50.
< 1 µM

Give reported IC50 value for "Cc1cc(N)nc(CC[C@@H](C)N)c1"
< 50 µM

Quick one: give measured IC50 for "C#Cc1cnc(N)cc1C"
< 50 µM

Return reported IC50. Input compound: "Cc1cc(N)nc2c1CCCC2"
< 50 µM

Assign IC50 to the following record: "COc1ccnc(N)c1"
< 10 µM

====

- tested-system: iNOS (Homo sapiens, UniProt P35228)
- assay-notes: NOS activity: L-[3H]citrulline formation from L-[3H]arginine, iNOS
- Type: biochemical
- condition-description: Table 1; iNOS; 1 μM L-Arg, pH 7.5, room temperature, 30 minutes; read-out: iNOS (IC50)
# Lookup of reported IC50 keyed by entry

chemical-structure: Cc1cccnc1N
IC50: 3400 nM
//
chemical-structure: Nc1cc(Cc2ccccc2)ccn1
IC50: > 50000 nM
//
chemical-structure: Cc1ccnc(NCc2ccccc2)c1
IC50: 2400 nM

// next entry
# return recorded IC50 for input "Cc1cc(C)nc(N)c1"
108 nM

====

- tested-system: ecNOS (Homo sapiens)
- assay-notes: NOS activity: L-[3H]citrulline formation from L-[3H]arginine, ecNOS
- Type: biochemical
- condition-description: Table 1; ecNOS; 1 μM L-Arg, pH 7.5, room temperature, 30 minutes; read-out: ecNOS (IC50)
pIC50: −log10 of the molar value.
pIC50: recorded values

chemical-structure: Nc1ncccc1O
pIC50: < 4.30
--
chemical-structure: Nc1ccccn1
pIC50: > 5.00
--
chemical-structure: Cc1ccnc(NCc2ccccc2)c1
pIC50: > 4.30
--
chemical-structure: Nc1cc(Cl)ccn1
pIC50: > 5.00

Now let's try a different one.
Let me know recorded pIC50 for "Cc1ccnc(N)c1C" , thanks.
> 6.00

====

- tested-system: iNOS (Homo sapiens, UniProt P35228)
- assay-notes: NOS activity: L-[3H]citrulline formation from L-[3H]arginine, iNOS
- Type: biochemical
- condition-description: Table 1; iNOS; 1 μM L-Arg, pH 7.5, room temperature, 30 minutes; read-out: iNOS (IC50)
// reported pIC50 per item
The value called pIC50 is obtained by taking minus log10 of the concentration in mol/L.

// known answers, use as guide
chemical-structure: Cc1ccnc(N)c1N
tested-system: iNOS (Homo sapiens, UniProt P35228)
pIC50: 7.24
//
chemical-structure: Nc1ncccc1O
tested-system: iNOS (Homo sapiens, UniProt P35228)
pIC50: 4.32

For "Nc1cc(C(F)(F)F)ccn1" , write its pIC50.
4.88

Name the recorded pIC50 of the item "Nc1ccccn1" in your answer.
5.85

Fill in pIC50 for record "Cc1ccnc(N)c1C"
7.12

====

- tested-system: ecNOS (Homo sapiens, UniProt P29474)
- assay-notes: NOS activity: L-[3H]citrulline formation from L-[3H]arginine, ecNOS
- Type: biochemical
- condition-description: Table 2; ecNOS; 1 μM L-Arg, pH 7.5, room temperature, 30 minutes; read-out: ecNOS (IC50)
Where a name gives a salt, the structure may show the parent alone.
quantity-name: IC50

Solved cases (5 shown):
compound: Cc1ccnc(N)c1CO [Example 23, 2-Amino-3-hydroxymethyl-4-picoline]
tested-system: ecNOS (Homo sapiens, UniProt P29474)
result: < 1 µM
//
compound: COc1cccnc1N [Example 20, 2-Amino-3-methoxypyridine]
tested-system: ecNOS (Homo sapiens, UniProt P29474)
result: < 50 µM
//
compound: Cc1ccnc(N)c1N(C)C [Example 27, trihydrochloride]
tested-system: ecNOS (Homo sapiens, UniProt P29474)
result: > 50 µM
//
compound: Cc1cnc(N)cc1C [Example 49, hydrochloride]
tested-system: ecNOS (Homo sapiens, UniProt P29474)
result: < 1 µM
//
compound: C=Cc1c(C)cc(N)nc1C [Example 37, 4,6-Dimethyl-5-ethenyl-2-aminopyridine]
tested-system: ecNOS (Homo sapiens, UniProt P29474)
result: < 10 µM

Name the value of IC50 reported for CSCc1ccnc(N)c1 [Example 22, 2-Amino-4-methylthiomethylpyridine] when tested on ecNOS (Homo sapiens, UniProt P29474).
> 50 µM

Recall the reported IC50 of Cc1ccnc(N)c1NC(=O)NCc1ccccc1 [Example 19, 2-Amino-3-benzylurea-4-picoline] on ecNOS (Homo sapiens, UniProt P29474) and write it down.
> 50 µM

Give reported IC50 for Cc1cc(N)ncc1Cl [Example 29, 2-Amino-5-chloro-4-picoline] (ecNOS (Homo sapiens, UniProt P29474))
< 50 µM

With ecNOS (Homo sapiens, UniProt P29474) as the test system, provide measured IC50 for this compound: Cc1cc(N)ncc1C(=O)O [Example 43, 2-Amino-5-carboxy-4-methylpyridine]
> 50 µM

Give IC50 for CCc1cccc(N)n1 [Example 52, 2-Amino-6-ethylpyridine] tested on ecNOS (Homo sapiens, UniProt P29474).
< 1 µM

====

# reported IC50; entries follow
- tested-system: iNOS (Homo sapiens)
- assay-notes: NOS activity: L-[3H]citrulline formation from L-[3H]arginine, iNOS
- Assay type: biochemical
- condition-description: Table 1; iNOS; 1 μM L-Arg, pH 7.5, room temperature, 30 minutes; read-out: iNOS (IC50)

Field: example entries. Status: answers known.
molecule: Nc1cc(-c2ccccc2)ccn1 [Example 11]
IC50: > 50 µM
--
molecule: N#Cc1ccnc(N)c1 [Example 16, 2-Amino-4-cyanopyridine]
IC50: > 50 µM
--
molecule: Nc1cccnc1N [Example 10]
IC50: < 10 µM

Tell us which IC50 value is on record for Nc1cc(Cl)ccn1 [Example 15, 2-Amino-4-chloropyridine]
< 1 µM

====

- tested-system: UniProt P29474
- assay-notes: NOS activity: L-[3H]citrulline formation from L-[3H]arginine, ecNOS
- Assay type: biochemical
- condition-description: Table 2; ecNOS; 1 μM L-Arg, pH 7.5, room temperature, 30 minutes; read-out: ecNOS (IC50)
pIC50: −log10 of the molar value. Where a name gives a salt, the structure may show the parent alone.
pIC50 values, listed per item

Please review the entries below; each comes with its answer.
compound: COCc1c(C)ccnc1N [Example 25, dihydrochloride]
quantity-name: pIC50
result: > 4.30
//
compound: CCCCCc1cnc(N)cc1C
quantity-name: pIC50
result: < 4.30
//
compound: Cc1cc(N)nc(CCc2ccccc2)c1
quantity-name: pIC50
result: > 5.00

Here is the next item to consider.
Give the reported value of pIC50 for this record: "Cc1cnc(N)c(C)c1"
> 5.00

Source listed as patent US5972975A.
